- procedure details: Pharmacokinetic study in male ICR mice
- Assay type: in vivo
- condition set: mouse, plasma, po, 5 mg/kg
metric: AUC(0-t) (ng·h/mL)
Note: unit ng·h/mL is implicit; provide only the numeric part.

Recorded AUC(0-t) of CC(=O)c1cccn1CCc1ccc(C(=O)Nc2ccccc2N)cc1 , please.
40.7

* * *

- procedure details: Pharmacokinetic study in male ICR mice
- Assay type: in vivo
- condition set: mouse, plasma, iv, 1 mg/kg
metric: MRT inf (min)
Note: unit min is implicit; provide only the numeric part.

Recorded MRT inf of CC(=O)c1cccn1CCc1ccc(C(=O)Nc2ccccc2N)cc1 [Compound 20] , please.
10.9

* * *

- system tested: HDAC6 (Homo sapiens)
- Construct: purchased BPS #50006
- Sequence (Q9UBN7 whole entry): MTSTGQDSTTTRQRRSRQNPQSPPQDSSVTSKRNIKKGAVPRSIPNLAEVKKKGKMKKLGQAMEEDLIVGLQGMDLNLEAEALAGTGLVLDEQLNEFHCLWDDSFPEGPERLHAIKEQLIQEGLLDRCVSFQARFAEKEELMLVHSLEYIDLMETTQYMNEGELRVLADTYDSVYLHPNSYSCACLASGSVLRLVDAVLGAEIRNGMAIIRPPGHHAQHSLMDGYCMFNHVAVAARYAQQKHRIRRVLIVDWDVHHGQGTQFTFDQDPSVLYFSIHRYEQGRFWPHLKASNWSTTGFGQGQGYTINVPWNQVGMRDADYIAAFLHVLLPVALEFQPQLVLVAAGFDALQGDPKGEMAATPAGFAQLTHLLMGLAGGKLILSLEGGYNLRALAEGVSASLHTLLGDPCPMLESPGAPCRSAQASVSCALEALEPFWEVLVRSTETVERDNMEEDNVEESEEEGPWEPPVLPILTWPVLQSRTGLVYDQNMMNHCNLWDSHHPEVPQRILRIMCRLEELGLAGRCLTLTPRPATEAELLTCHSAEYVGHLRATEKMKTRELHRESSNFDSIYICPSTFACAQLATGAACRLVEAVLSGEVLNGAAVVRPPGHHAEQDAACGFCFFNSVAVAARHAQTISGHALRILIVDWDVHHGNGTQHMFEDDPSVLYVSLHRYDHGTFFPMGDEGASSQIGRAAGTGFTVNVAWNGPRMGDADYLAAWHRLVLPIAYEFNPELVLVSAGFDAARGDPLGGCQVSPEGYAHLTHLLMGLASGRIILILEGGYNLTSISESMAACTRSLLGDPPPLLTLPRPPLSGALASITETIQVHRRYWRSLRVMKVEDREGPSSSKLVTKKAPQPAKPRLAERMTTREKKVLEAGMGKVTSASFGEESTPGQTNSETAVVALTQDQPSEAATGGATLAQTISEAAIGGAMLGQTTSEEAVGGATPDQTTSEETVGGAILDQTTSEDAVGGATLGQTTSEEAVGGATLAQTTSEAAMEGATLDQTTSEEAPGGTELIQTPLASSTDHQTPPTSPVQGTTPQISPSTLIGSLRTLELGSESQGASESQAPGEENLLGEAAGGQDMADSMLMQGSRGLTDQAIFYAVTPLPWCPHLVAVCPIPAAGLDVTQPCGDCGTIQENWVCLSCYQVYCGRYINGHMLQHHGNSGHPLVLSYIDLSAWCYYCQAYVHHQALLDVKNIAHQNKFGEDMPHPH
- procedure details: HDAC inhibition assay (HTRF), HDAC6
- Type: biochemical
- condition set: at 1 μM
metric: inhibition at 1 µM
Give the figure together with its unit, number first.

INSERT INTO measurements (molecule, system_tested, assay_value) VALUES
  ('O=C(CCCCCCn1ccc2cc(Cl)ccc21)NO', 'HDAC6 (Homo sapiens)', '92.3%'),
  ('O=C(CCCCCCn1ccc2ccc(F)cc21)NO', 'HDAC6 (Homo sapiens)', '92.4%'),
  ('O=C(CCCCCCn1ccc2ccccc21)NO [Compound 5f, N-hydroxy-7-(1H-indol-1-yl)heptanamide]', 'HDAC6 (Homo sapiens)', '92.6%'),
  ('Cc1ccc2c(ccn2CCCCCCC(=O)NO)c1', 'HDAC6 (Homo sapiens)', '91.5%');

What value of inhibition at 1 µM on HDAC6 (Homo sapiens) does O=C(CCCCCCn1ccc2cc(Br)ccc21)NO have?
90.3%

* * *

Consider molecules characterized by their IC50 with UniProt:Q9UBN7.
Note: unit µM is implicit; provide only the numeric part.

What value of IC50 on UniProt:Q9UBN7 does O=C(CCCCCCn1cccc1C(=O)c1ccccc1)NO have?
0.00974

What value of IC50 on UniProt:Q9UBN7 does CC(=O)c1cccn1CCCCCCC(=O)NO have?
0.0142

What value of IC50 on UniProt:Q9UBN7 does O=C(CCCCCCn1cccc1)NO [Compound 5a, N-hydroxy-7-(1H-pyrrol-1-yl)heptanamide] have?
0.0164

What value of IC50 on UniProt:Q9UBN7 does CCC(=O)c1cccn1CCCCCCC(=O)NO have?
0.00767

* * *

- system tested: HDAC3 (Homo sapiens)
- Sequence (O15379 whole entry): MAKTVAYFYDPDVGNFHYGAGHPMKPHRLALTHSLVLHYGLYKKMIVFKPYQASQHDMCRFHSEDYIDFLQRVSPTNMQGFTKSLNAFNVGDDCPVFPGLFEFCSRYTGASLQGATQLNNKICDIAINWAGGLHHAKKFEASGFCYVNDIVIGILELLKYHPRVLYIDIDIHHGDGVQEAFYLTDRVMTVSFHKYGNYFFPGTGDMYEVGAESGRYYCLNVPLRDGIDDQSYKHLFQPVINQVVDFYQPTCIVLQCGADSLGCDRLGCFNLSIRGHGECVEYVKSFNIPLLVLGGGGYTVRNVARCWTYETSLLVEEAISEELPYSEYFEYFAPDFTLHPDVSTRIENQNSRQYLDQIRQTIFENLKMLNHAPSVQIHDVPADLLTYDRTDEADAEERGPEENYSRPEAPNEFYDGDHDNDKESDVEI
- Sequence (Q9Y618 395-489 partner limits assumed): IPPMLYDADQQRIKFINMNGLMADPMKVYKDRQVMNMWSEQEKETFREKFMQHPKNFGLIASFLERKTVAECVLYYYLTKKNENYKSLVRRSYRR
- procedure details: HDAC inhibition assay (HTRF), HDAC3;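 note: HTRF detection with streptavidin-XL665 and a Eu cryptate-labelled antibody against unmodified H3K9, two independent runs with duplicate wells at each concentration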
- condition set: read-out: (%) Inhibition of HDAC3
metric: inhibition at 1 µM (%)
Note: unit % is implicit; provide only the numeric part.

Below, each entry is followed by its recorded inhibition at 1 µM result.
INSERT INTO results (molecule, result_units, assay_value) VALUES
  ('O=C(CCCCCCn1ccc2ccccc21)NO [Compound 5f, N-hydroxy-7-(1H-indol-1-yl)heptanamide]', '%', 94.4),
  ('O=C(CCCCCCn1ccc2cc(Br)ccc21)NO [Compound 5k]', '%', 92.2),
  ('O=C(CCCCCCn1ccc2cc(Cl)ccc21)NO [Compound 5j]', '%', 93.3),
  ('O=C(CCCCCCn1ccc2ccc(F)cc21)NO [Compound 5h]', '%', 93.2);

Turning to the following molecule.
What value of inhibition at 1 µM on HDAC3 (Homo sapiens) does Cc1ccc2c(ccn2CCCCCCC(=O)NO)c1 [Compound 5g] have?
93.5
